Biological target: T1, human PRLR ECD-Fc fusion protein (human, UniProt P16471 25-233)
T1 construct: not shown: Fc region (captured by goat anti-human Fc)
T1 sequence: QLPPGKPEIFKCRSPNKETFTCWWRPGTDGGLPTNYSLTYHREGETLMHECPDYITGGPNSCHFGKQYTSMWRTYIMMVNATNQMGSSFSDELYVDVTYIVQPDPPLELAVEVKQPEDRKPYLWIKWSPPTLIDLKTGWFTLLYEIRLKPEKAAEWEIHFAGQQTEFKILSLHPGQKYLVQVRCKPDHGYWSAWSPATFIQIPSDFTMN
Assay: ELISA on ECD

{"binder": "Ab36 (antibody, human IgG1, kappa, V domains shown, humanized from Ab7; G1; also called Ab4 HC.1 and Ab4 LC.1a) VH: EVQLVQSGAEVKKPGSSVKVSCKASGYTFTSYWIHWVRQAPGQGLEWMGEIDPSDSYTNYNQKFKGRVTITADKSTSTAYMELSSLRSEDTAVYYCARSFFTNWFAYWGQGTLVTVSS VL: DVVMTQTPLSLSVTPGQPASISCRSSQSLVHSNGNTYLHWYLQKPGQSPQLLIYKVSNRFSGVPDRFSGSGSGTDFTLKISRVEAEDVGVYFCSQSTHVPFTFGGGTKVEIKR", "EC50 / nM": 0.556}
{"binder": "Ab46 (antibody, human IgG1, kappa, V domains shown, humanized from Ab8; G1; also called Ab3 HC.1 and Ab3 LC.1b) VH: EVQLVQSGAEVKKPGASVKVSCKASGYTFTDYNIHWVRQAPGQGLEWMGYIYPNNDGTGYNQKFKSRVTMTTDTSTSTAYMELRSLRSDDTAVYYCARGDGNYVGDMDYWGQGTTVTVSS VL: DIQMTQSPSSLSASVGDRVTITCRASENIYSYLAWYQQKPGKAPKLLVYNAKTLAEGVPSRFSGSGSGTDFTLTISSLQPEDFATYYCQHHYATPFTFGQGTKLEIKR", "EC50 / nM": 0.0626}
{"binder": "Ab50 (antibody, human IgG1, kappa, V domains shown, humanized from Ab8; G1; also called Ab3 HC.1b and Ab3 LC.1) VH: EVQLVQSGAEVKKPGASVKVSCKASGYTFTDYNIHWVRQAPGQGLEWIGYIYPNNDGTGYAQKLQGRVTMTVDTSTSTAYMELRSLRSDDTAVYYCARGDGNYVGDMDYWGQGTTVTVSS VL: DIQMTQSPSSLSASVGDRVTITCRASENIYSYLAWYQQKPGKAPKLLIYNAKTLAEGVPSRFSGSGSGTDFTLTISSLQPEDFATYYCQHHYATPFTFGQGTKLEIKR", "EC50 / nM": 0.109}
{"binder": "Ab10 (antibody, V domains shown, murine monoclonal, isotype G2a; also called murine Ab10) VH: EVQLHQSGPELVKPGASVKISCKASGYTFTDYNMHWMKQSHGKSLEWIGYFYPYNGGTGYNQEFKNKATLTVDISSSTAYMELRRLTSEDSAVYYCARGGWGIYYAMDYWGQGTSVTVSS VL: DIQMTQSPASLSASVGETVTITCRASENIYSYLTWYQQKQGKSPQLLVYNAKTLAEGVPSRFSGSGSGTQFSLKINSLQPEDFGSYHCQHHSVTPLTFGAGTKLELK", "EC50 / nM": 0.147}
{"binder": "Ab27 (antibody, human IgG1, kappa, V domains shown, humanized from Ab5; G1; also called Ab2 HC.1 and Ab2 LC.1a) VH: EVQLVQSGAEVKKPGSSVKVSCKASGYTFTSFWMHWVRQAPGQGLEWMGVIDPSDTYTNYNQKFKGRVTITADESTSTAYMELSSLRSEDTAVYYCARGDYSNWFTYWGQGTLVTVSS VL: DVVMTQTPLSLSVTPGQPASISCRSSQRLVHSNGNTYLHWYLQKPGQSPQLLIYKVSNRFSGVPDRFSGSGSGTDFTLKISRVEAEDVGVYFCSQSTHVPWTFGGGTKVEIKR", "EC50 / nM": 0.17}
{"binder": "Ab11 (antibody, V domains shown, murine monoclonal, isotype G1; also called murine Ab11) VH: EVKLVESGGGLVQPGGSLKLSCAASGFTFSDYYMFWVRQTPEKSLEWVAYISNGGGSTYYPDTVKGRFTISRDNAKNTLYLQMSRLKSEDTAMYYCSRQLFYYGSRGAMGYWGQGTSVTVSS VL: DVLMTQTPLSLPVSLGDQASISCRSSQSIVHSNGNTYLEWYLQKPGQSPKLLIYKVSNRFSGVPDRFSGSGSGTDFTLKISRVEAEDLGVYYCFQGSHVPFTFGSGTKLEIK", "EC50 / nM": 0.093}
{"binder": "Ab7 (antibody, V domains shown, murine monoclonal, isotype G1; also called murine Ab7) VH: QVQLQQPGAELVMPGTSVKLSCKASGYTFTSYWIHWVKQRPGQGLEWIGEIDPSDSYTNYNQKFKGKATLTVDRSSSTAYMQLSSLTSEDSAVYYCGRSFFTNWFAYWGQGTLVTVSA VL: DVVMTQTPLSLPVSLGDQASISCRSSQSLVHSNGNTYLHWYLQKPGQSPKLLIYKVSNRFSGVPDRFSGSGSGTDFTLKINRVEAEDLGVYFCSQSTHVPFTFGSGTKLEIK", "EC50 / nM": 0.098}
{"binder": "Ab47 (antibody, human IgG1, kappa, V domains shown, humanized from Ab8; G1; also called Ab3 HC.1a and Ab3 LC.1) VH: EVQLVQSGAEVKKPGASVKVSCKASGYTFTDYNIHWVRQAPGQGLEWIGYIYPNNDGTGYNQKFKSRATLTVDNSTSTAYMELRSLRSDDTAVYYCARGDGNYVGDMDYWGQGTTVTVSS VL: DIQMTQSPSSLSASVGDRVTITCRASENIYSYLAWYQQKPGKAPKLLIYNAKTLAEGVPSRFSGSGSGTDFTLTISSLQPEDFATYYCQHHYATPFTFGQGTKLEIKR", "EC50 / nM": 0.0819}
{"binder": "Ab49 (antibody, human IgG1, kappa, V domains shown, humanized from Ab8; G1; also called Ab3 HC.1a and Ab3 LC.1b) VH: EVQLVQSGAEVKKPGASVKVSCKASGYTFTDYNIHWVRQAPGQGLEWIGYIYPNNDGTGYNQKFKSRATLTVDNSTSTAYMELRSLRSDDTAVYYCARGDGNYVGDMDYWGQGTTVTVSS VL: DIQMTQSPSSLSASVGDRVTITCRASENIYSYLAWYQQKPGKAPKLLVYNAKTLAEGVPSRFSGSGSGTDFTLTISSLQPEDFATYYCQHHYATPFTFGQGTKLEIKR", "EC50 / nM": 0.0954}
{"binder": "Ab12 (antibody, V domains shown, murine monoclonal, isotype G2a; reported as PRLR agonist; also called murine Ab12) VH: DVQLQESGPGLVKPSQSLSLTCTVTGYSITSDYAWNWIRQFPGNKLEWMGYIGYSGRTSFNPSLKSRISITRDTSKNQFFLQLNSVTTEDTATYYCARGGFAMDYWGQGTSVTVSS VL: QIVLTQSPGIMSASPGEKVTMTCSASSSVTYMYWYQQKPRSSPKPWIYLTSNLASGVPARFSGSGSGTSYSLTISSMEAEDGATYYCQQWSSTPPLTFGGGTKLELN", "EC50 / nM": 0.069}
